# System: ORYZA SATIVA, L. TEBONNET
# testSummary: Rice tolerance to post-transplant applications under flooded paddy conditions, ORYSAT (Rice, Tebonnet)
# Format: in vivo
# studyConditions: 0.250 kg/ha, post-transplant rice, 3-4 weeks after treatment
# Method: Results of herbicide evaluation are expressed on a rating scale (0-9). The scale is based upon a visual observation of plant stand, vigor, malformation, size, chlorosis and overall plant appearance as compared with a control. The tolerance of transplanted rice to post-transplanted herbicide applications is determined as follows: two ten-day-old rice seedlings (CV. Tebonnet) are transplanted into a silt loam soil in 32 oz. plastic containers with a diameter of 10.5 cm and no drainage holes. […]
Please use Condition met whenever Herbicidal effect rating, ORYSAT is not below 2, and Condition not met whenever it is.

Worked cases, answers included:
Q: Has COC(=O)Cn1c(=O)[nH]c(=O)n(-c2cc(Oc3ccc(Cl)cc3Cl)ccc2[N+](=O)[O-])c1=O a recorded Herbicidal effect rating, ORYSAT greater than or equal to 2?
Ans: Condition not met

Q: Has Cn1c(=O)n(CC(=O)OC(C)(C)C)c(=O)n(-c2cc(Oc3c(F)cc(C(F)(F)F)cc3Cl)ccc2[N+](=O)[O-])c1=O a recorded Herbicidal effect rating, ORYSAT greater than or equal to 2?
Ans: Condition met

Q: Has COC(=O)Cn1c(=O)n(C)c(=O)n(-c2cc(Oc3ncc(C(F)(F)F)cc3Cl)ccc2Br)c1=O a recorded Herbicidal effect rating, ORYSAT greater than or equal to 2?
Ans: Condition met

Q: Has COC(=O)Cn1c(=O)n(C)c(=O)n(-c2cc(Oc3ccc(Cl)cc3Cl)ccc2[N+](=O)[O-])c1=O a recorded Herbicidal effect rating, ORYSAT greater than or equal to 2?
Ans: Condition met

Q: Has COC(=O)Cn1c(=O)n(C)c(=O)n(-c2cc(Oc3c(Cl)cccc3Cl)ccc2[N+](=O)[O-])c1=O a recorded Herbicidal effect rating, ORYSAT greater than or equal to 2?
Ans: Condition not met

Query compound follows.
Q: Has COC(=O)Cn1c(=O)n(C)c(=O)n(-c2cc(Oc3cc(Cl)c(Cl)cc3Cl)ccc2[N+](=O)[O-])c1=O a recorded Herbicidal effect rating, ORYSAT greater than or equal to 2?
Ans: Condition not met

* * *

Provide the recorded Herbicidal effect rating, TRZAWO for the entries that follow.
# System: TRITICUM AESTIVUM, CV. APOLLO
# testSummary: Postemergence herbicidal evaluation, TRZAWO (Wheat, Winter, CV. APOLLO)
# Assay type: in vivo
# studyConditions: 0.250 kg/ha

Q: Annotate the compound COC(=O)Cn1c(=O)n(C)c(=O)n(-c2cc(Oc3c(F)cc(C(F)(F)F)cc3Cl)ccc2Br)c1=O with its measured Herbicidal effect rating, TRZAWO.
Ans: 8.0

For the 4 compounds below, give their Herbicidal effect rating, TRZAWO values.
1. COC(=O)Cn1c(=O)n(C)c(=O)n(-c2cc(Oc3ccc(C(F)(F)F)cc3Cl)ccc2[N+](=O)[O-])c1=O
2. Cn1c(=O)[nH]c(=O)n(-c2cc(Oc3ccc(C(F)(F)F)cc3Cl)ccc2[N+](=O)[O-])c1=O [B, reference compound]
3. Cn1c(=O)[nH]c(=O)n(-c2cc(Oc3c(F)cc(C(F)(F)F)cc3Cl)ccc2F)c1=O [C, reference compound]
4. COC(=O)Cn1c(=O)n(C)c(=O)n(-c2cc(Oc3c(F)cc(C(F)(F)F)cc3Cl)ccc2F)c1=O

Ans:
1. 7.6
2. 4.3
3. 4.5
4. 8.2

* * *

# System: SAGITTARIA PYGMAEA, L.
# testSummary: Preemergence weed control under flooded paddy conditions, SAGPY (Arrowhead (Pygmaea))
# Type: in vivo
# studyConditions: 0.500 kg/ha, preemergence, 3-4 weeks after treatment
Provide the recorded Herbicidal effect rating, SAGPY for the entries that follow.
Answers are plain numbers.

Worked examples follow.
Q: Annotate the compound Cn1c(=O)n(CC(=O)OC(C)(C)C)c(=O)n(-c2cc(Oc3c(F)cc(C(F)(F)F)cc3Cl)ccc2F)c1=O [Compound 41] with its measured Herbicidal effect rating, SAGPY.
Ans: 0.0

Q: Annotate the compound C=CCn1c(=O)n(CC(=O)OCC)c(=O)n(-c2cc(Oc3ccc(C(F)(F)F)cc3Cl)ccc2[N+](=O)[O-])c1=O [Compound 13] with its measured Herbicidal effect rating, SAGPY.
Ans: 0.0

Q: Annotate the compound COC(=O)Cn1c(=O)n(C)c(=O)n(-c2cc(Oc3ccc(C#N)cc3)ccc2[N+](=O)[O-])c1=O [Compound 32] with its measured Herbicidal effect rating, SAGPY.
Ans: 0.0

Q: Annotate the compound COC(=O)Cn1c(=O)[nH]c(=O)n(-c2cc(Oc3ccc(Cl)cc3Cl)ccc2[N+](=O)[O-])c1=O [Compound 14] with its measured Herbicidal effect rating, SAGPY.
Ans: 0.0

Q: Annotate the compound COC(=O)Cn1c(=O)n(C)c(=O)n(-c2cc(Oc3ccc(Cl)cc3F)ccc2[N+](=O)[O-])c1=O [Compound 23] with its measured Herbicidal effect rating, SAGPY.
Ans: 0.0

Q: Annotate the compound COC(=O)Cn1c(=O)n(C)c(=O)n(-c2cc(Oc3ccc(SC)cc3Cl)ccc2[N+](=O)[O-])c1=O [Compound 34] with its measured Herbicidal effect rating, SAGPY.
Ans: 0.0

Q: Annotate the compound COC(=O)Cn1c(=O)n(C)c(=O)n(-c2cc(Oc3c(Cl)cc(Cl)cc3Cl)ccc2[N+](=O)[O-])c1=O [Compound 33] with its measured Herbicidal effect rating, SAGPY.
Ans: 0.0

Q: Annotate the compound COC(=O)Cn1c(=O)n(C)c(=O)n(-c2cc(Oc3ccc([S+](C)[O-])cc3Cl)ccc2[N+](=O)[O-])c1=O (stereo not shown) [Compound 36] with its measured Herbicidal effect rating, SAGPY.
Ans: 0.0

For the 5 compounds below, give their Herbicidal effect rating, SAGPY values.
1. COC(=O)Cn1c(=O)n(CC(=O)OC)c(=O)n(-c2cc(Oc3ccc(Cl)cc3Cl)ccc2[N+](=O)[O-])c1=O [Compound 19]
2. Cn1c(=O)n(CC(N)=O)c(=O)n(-c2cc(Oc3ncc(C(F)(F)F)cc3Cl)ccc2Br)c1=O [Compound 42]
3. COC(=O)Cn1c(=O)n(C)c(=O)n(-c2cc(Oc3ccc(F)cc3C(F)(F)F)ccc2[N+](=O)[O-])c1=O [Compound 21]
4. COC(=O)Cn1c(=O)n(C)c(=O)n(-c2cc(Oc3cc(F)c(F)cc3F)ccc2[N+](=O)[O-])c1=O [Compound 30]
5. Cn1c(=O)n(CC(=O)OC(C)(C)C)c(=O)n(-c2cc(Oc3ccc(C(F)(F)F)cc3Cl)ccc2Cl)c1=O [Compound 40]

Ans:
1. 0.0
2. 0.0
3. 0.0
4. 0.0
5. 0.0

For the 2 compounds below, give their Herbicidal effect rating, SAGPY values.
1. COC(=O)Cn1c(=O)n(C)c(=O)n(-c2cc(Oc3ccc(F)c(F)c3F)ccc2[N+](=O)[O-])c1=O [Compound 27]
2. COC(=O)Cn1c(=O)n(C)c(=O)n(-c2cc(Oc3ccc(Cl)c(C)c3Cl)ccc2[N+](=O)[O-])c1=O [Compound 20]

Ans:
1. 0.0
2. 0.0

For the 5 compounds below, give their Herbicidal effect rating, SAGPY values.
1. COC(=O)Cn1c(=O)n(C)c(=O)n(-c2cc(Oc3cc(OC)c(Cl)cc3Cl)ccc2[N+](=O)[O-])c1=O [Compound 29]
2. COC(=O)Cn1c(=O)n(C)c(=O)n(-c2cc(Oc3c(Cl)cccc3Cl)ccc2[N+](=O)[O-])c1=O [Compound 37]
3. COC(=O)Cn1c(=O)n(C)c(=O)n(-c2cc(Oc3cccc(Cl)c3Cl)ccc2[N+](=O)[O-])c1=O [Compound 22]
4. COC(=O)Cn1c(=O)n(C)c(=O)n(-c2cc(Oc3cc(Cl)cc(Cl)c3Cl)ccc2[N+](=O)[O-])c1=O [Compound 25]
5. COC(=O)Cn1c(=O)n(C)c(=O)n(-c2cc(Oc3cc(Cl)cc(Cl)c3)ccc2[N+](=O)[O-])c1=O [Compound 35]

Ans:
[0.0, 0.0, 0.0, 0.0, 0.0]

* * *

Provide the recorded GALAP for the entries that follow.
# System: GALIUM APARINE
# testSummary: Postemergence herbicidal evaluation, GALAP (Galium);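 also: higher means more injury with 8 approaching complete kill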
# Type: in vivo
# Set-up: key: 0-9 visual rating scale vs untreated control
# studyConditions: Rate 0.016 kg/ha
Numbers only.

Worked examples follow.
Q: Give GALIUM APARINE GALAP for the following molecule: Cn1c(=O)[nH]c(=O)n(-c2cc(Oc3c(F)cc(C(F)(F)F)cc3Cl)ccc2[N+](=O)[O-])c1=O [D, reference compound]
Ans: 8.0

Q: Give GALIUM APARINE GALAP for the following molecule: COC(=O)Cn1c(=O)n(C)c(=O)n(-c2cc(Oc3ccc(C(F)(F)F)cc3Cl)ccc2Cl)c1=O
Ans: 7.5

Q: Give GALIUM APARINE GALAP for the following molecule: Cn1c(=O)[nH]c(=O)n(-c2cc(Oc3ccc(C(F)(F)F)cc3Cl)ccc2Cl)c1=O [F, reference compound]
Ans: 5.0

Now let's try a different one.
Q: Give GALIUM APARINE GALAP for the following molecule: COC(=O)Cn1c(=O)n(C)c(=O)n(-c2cc(Oc3c(F)cc(C(F)(F)F)cc3Cl)ccc2[N+](=O)[O-])c1=O
Ans: 6.0
